Target: LPA1 (Mus musculus, UniProt P61793)
Sequence (P61793 whole entry): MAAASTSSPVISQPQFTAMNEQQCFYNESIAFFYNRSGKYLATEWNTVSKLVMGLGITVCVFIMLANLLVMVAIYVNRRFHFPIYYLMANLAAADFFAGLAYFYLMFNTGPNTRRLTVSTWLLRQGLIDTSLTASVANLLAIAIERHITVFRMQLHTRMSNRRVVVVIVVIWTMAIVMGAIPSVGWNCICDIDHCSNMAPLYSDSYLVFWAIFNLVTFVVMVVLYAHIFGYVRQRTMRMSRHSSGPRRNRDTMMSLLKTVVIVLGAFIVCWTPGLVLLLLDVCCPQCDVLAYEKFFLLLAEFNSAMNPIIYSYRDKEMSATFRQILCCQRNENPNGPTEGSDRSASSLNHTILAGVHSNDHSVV
Assay: GTP[γ35S] binding, LPA1 transfected HEK293T (or RH7777) cell membranes
Assay type: biochemical
Set-up: expressed in transfected cells; host or cells: HEK293T (transient, with G protein plasmids); some results from RH7777 rat hepatoma membranes transfected with LPA1 DNA only
# 1 = Emax below 50% (exclusive); 0 = Emax at/above 50%

CCCCCCCC/C=C\CCCCCCCC(=O)N[C@@H](CO)COP(=O)(O)O = 0
CCCCCCCC/C=C\CCCCCCCC(=O)N[C@@H](CC)COP(=O)(O)O = 0
CCCCCCCC/C=C\CCCCCCCC(=O)N[C@H](C)COP(=O)(O)O = 0
CCCCCCCC/C=C\CCCCCCCC(=O)N[C@@H](CN)COP(=O)(O)O = 1
CCCCCCCC/C=C\CCCCCCCC(=O)N[C@H](CC)COP(=O)(O)O = 0
CCCCCCCC/C=C\CCCCCCCC(=O)N[C@H](CO)COP(=O)(O)O = 0
CCCCCCCC/C=C\CCCCCCCC(=O)N[C@@H](C)COP(=O)(O)O = 1
CCCCCCCC/C=C\CCCCCCCC(=O)N[C@@H](COP(=O)(O)O)C(=O)OC = 0
CCCCCCCC/C=C\CCCCCCCC(=O)N[C@@H](COP(=O)(O)O)Cc1ccccc1 = 1
CCCCCCCC/C=C\CCCCCCCC(=O)N[C@H](COP(=O)(O)O)C(C)C = 1
CCCCCCCC/C=C\CCCCCCCC(=O)N[C@H](CN)COP(=O)(O)O = 0

====

Target: LPA3 (Homo sapiens)
Sequence (Q9UBY5 1-353): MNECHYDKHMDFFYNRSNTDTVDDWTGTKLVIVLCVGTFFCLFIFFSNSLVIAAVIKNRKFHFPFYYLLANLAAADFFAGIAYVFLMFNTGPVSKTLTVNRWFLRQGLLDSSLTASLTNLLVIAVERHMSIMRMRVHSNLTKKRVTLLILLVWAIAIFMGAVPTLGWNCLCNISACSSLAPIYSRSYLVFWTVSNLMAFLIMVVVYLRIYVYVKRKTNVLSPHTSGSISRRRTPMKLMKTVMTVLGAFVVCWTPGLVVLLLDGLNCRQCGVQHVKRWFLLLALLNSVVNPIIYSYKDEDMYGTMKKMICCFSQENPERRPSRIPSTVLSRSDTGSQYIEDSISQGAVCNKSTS
Assay: GTP[γ35S] binding, LPA3 transfected HEK293T cell membranes
Settings: agonist, GTP[γ35S] binding
measurement-kind: EC50 (µM)

CCCCCCCC/C=C\CCCCCCCC(=O)N[C@@H](CO)COP(=O)(O)O = 4.35
CCCCCCCC/C=C\CCCCCCCC(=O)N[C@@H](COP(=O)(O)O)Cc1ccccc1 = 0.351
CCCCCCCC/C=C\CCCCCCCC(=O)N[C@H](CC)COP(=O)(O)O = 1.08
CCCCCCCC/C=C\CCCCCCCC(=O)N[C@@H](COP(=O)(O)O)C(=O)OC = 1.48
CCCCCCCC/C=C\CCCCCCCC(=O)N[C@@H](COP(=O)(O)O)C(C)C = 3.81
CCCCCCCC/C=C\CCCCCCCC(=O)N[C@H](CO)COP(=O)(O)O = 0.322
CCCCCCCC/C=C\CCCCCCCC(=O)N[C@H](C)COP(=O)(O)O = 0.113
CCCCCCCC/C=C\CCCCCCCC(=O)N[C@@H](CC)COP(=O)(O)O = 4.98
CCCCCCCC/C=C\CCCCCCCC(=O)N[C@H](CN)COP(=O)(O)O = 0.684

====

Target: LPA1 (Mus musculus, UniProt P61793)
Experiment: GTP[γ35S] binding, LPA1 transfected HEK293T (or RH7777) cell membranes
Conditions: agonist, GTP[γ35S] binding
pEC50: −log10 of the molar value.
measurement-kind: pEC50

CCCCCCCC/C=C\CCCCCCCC(=O)N[C@@H](COP(=O)(O)O)C(=O)OC = 7.73
CCCCCCCC/C=C\CCCCCCCC(=O)N[C@H](COP(=O)(O)O)C(=O)OC = 5.92
CCCCCCCC/C=C\CCCCCCCC(=O)N[C@@H](COP(=O)(O)O)C(C)C = 7.13

====

Target: LPA2 (Homo sapiens)
Sequence (Q9HBW0 whole entry): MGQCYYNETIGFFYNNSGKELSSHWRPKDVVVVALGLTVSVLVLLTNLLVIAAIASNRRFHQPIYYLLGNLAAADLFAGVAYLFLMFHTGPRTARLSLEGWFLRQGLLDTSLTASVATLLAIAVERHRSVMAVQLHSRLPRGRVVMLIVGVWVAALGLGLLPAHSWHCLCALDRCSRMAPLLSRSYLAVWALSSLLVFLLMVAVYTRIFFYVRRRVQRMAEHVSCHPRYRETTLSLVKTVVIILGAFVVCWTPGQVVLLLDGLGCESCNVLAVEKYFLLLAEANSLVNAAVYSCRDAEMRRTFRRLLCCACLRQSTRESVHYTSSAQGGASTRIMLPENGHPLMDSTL
Experiment: GTP[γ35S] binding, LPA2 transfected HEK293T cell membranes
Conditions: agonist, GTP[γ35S] binding
Please assign false (0) whenever EC50 is at or above 300 nM, and true (1) whenever it is below.

CCCCCCCC/C=C\CCCCCCCC(=O)N[C@@H](CC)COP(=O)(O)O [VPC12115] = false (0)
CCCCCCCC/C=C\CCCCCCCC(=O)N[C@H](CC)COP(=O)(O)O [VPC12109] = true (1)
CCCCCCCC/C=C\CCCCCCCC(=O)N[C@H](COP(=O)(O)O)Cc1ccccc1 [VPC12255] = false (0)
CCCCCCCC/C=C\CCCCCCCC(=O)N[C@@H](COP(=O)(O)O)C(C)C [VPC12098] = false (0)
CCCCCCCC/C=C\CCCCCCCC(=O)N[C@H](CN)COP(=O)(O)O [VPC12178] = true (1)
CCCCCCCC/C=C\CCCCCCCC(=O)N[C@H](CO)COP(=O)(O)O [VPC31143] = true (1)
CCCCCCCC/C=C\CCCCCCCC(=O)N[C@@H](COP(=O)(O)O)C(=O)OC [VPC31139] = true (1)
CCCCCCCC/C=C\CCCCCCCC(=O)N[C@H](C)COP(=O)(O)O [VPC12086] = true (1)
CCCCCCCC/C=C\CCCCCCCC(=O)N[C@@H](CN)COP(=O)(O)O [VPC12048] = false (0)
CCCCCCCC/C=C\CCCCCCCC(=O)N[C@H](COP(=O)(O)O)C(=O)OC [VPC31180] = false (0)
CCCCCCCC/C=C\CCCCCCCC(=O)N[C@@H](C)COP(=O)(O)O [VPC12101] = false (0)
CCCCCCCC/C=C\CCCCCCCC(=O)N[C@@H](CO)COP(=O)(O)O [VPC31144] = false (0)
CCCCCCCC/C=C\CCCCCCCC(=O)N[C@H](COP(=O)(O)O)C(C)C [compound 40105] = false (0)
CCCCCCCC/C=C\CCCCCCCC(=O)N[C@@H](COP(=O)(O)O)Cc1ccccc1 [VPC12084] = true (1)

====

Molecular target: LPA2 (Homo sapiens)
Assay: GTP[γ35S] binding, LPA2 transfected HEK293T cell membranes
Format: biochemical
Parameters: expressed in transfected cells; host or cells: HEK293T (transient, calcium phosphate)
Method: The appropriate receptor plasmid DNA (encoding mouse LPA1, human LPA2 or human LPA3) was mixed with equal amounts of expression plasmids (pcDNA3) encoding a mutated (C351F) rat Gi2a, cow β1, and γ2 proteins and these DNAs were used to transfect monolayers of HEK293T cells (where ‘T’ indicates expression of the SV-40 virus large T antigen) using the calcium phosphate precipitate method. After about 60 hours, cells were harvested, membranes were prepared, aliquoted and stored at −70° C. until use. […]
compounds and their reported Emax
measurement-kind: Emax (%)

CCCCCCCC/C=C\CCCCCCCC(=O)N[C@@H](COP(=O)(O)O)C(C)C [VPC12098] = 85.8
CCCCCCCC/C=C\CCCCCCCC(=O)N[C@@H](CC)COP(=O)(O)O [VPC12115] = 85.6
CCCCCCCC/C=C\CCCCCCCC(=O)N[C@@H](COP(=O)(O)O)C(=O)OC [VPC31139] = 91.3
CCCCCCCC/C=C\CCCCCCCC(=O)N[C@@H](COP(=O)(O)O)Cc1ccccc1 [VPC12084] = 97
CCCCCCCC/C=C\CCCCCCCC(=O)N[C@H](CN)COP(=O)(O)O [VPC12178] = 103
CCCCCCCC/C=C\CCCCCCCC(=O)N[C@H](C)COP(=O)(O)O [VPC12086] = 95.2
CCCCCCCC/C=C\CCCCCCCC(=O)N[C@H](CO)COP(=O)(O)O [VPC31143] = 105

====

Listed here: items and their measured EC50.
Molecular target: LPA3 (Homo sapiens, UniProt Q9UBY5)
Assay: GTP[γ35S] binding, LPA3 transfected HEK293T cell membranes
Conditions: agonist, GTP[γ35S] binding
measurement-kind: EC50

CCCCCCCC/C=C\CCCCCCCC(=O)N[C@H](COP(=O)(O)O)C(=O)OC = > 5 µM
CCCCCCCC/C=C\CCCCCCCC(=O)N[C@H](COP(=O)(O)O)C(C)C = > 5 µM
CCCCCCCC/C=C\CCCCCCCC(=O)N[C@@H](CN)COP(=O)(O)O = > 5 µM
CCCCCCCC/C=C\CCCCCCCC(=O)N[C@H](COP(=O)(O)O)Cc1ccccc1 = > 5 µM
CCCCCCCC/C=C\CCCCCCCC(=O)N[C@@H](C)COP(=O)(O)O = > 5 µM
